SYSTEM: eqBuChE (BuChE from equine serum) (Equus caballus)
Sequence (P81908 whole entry): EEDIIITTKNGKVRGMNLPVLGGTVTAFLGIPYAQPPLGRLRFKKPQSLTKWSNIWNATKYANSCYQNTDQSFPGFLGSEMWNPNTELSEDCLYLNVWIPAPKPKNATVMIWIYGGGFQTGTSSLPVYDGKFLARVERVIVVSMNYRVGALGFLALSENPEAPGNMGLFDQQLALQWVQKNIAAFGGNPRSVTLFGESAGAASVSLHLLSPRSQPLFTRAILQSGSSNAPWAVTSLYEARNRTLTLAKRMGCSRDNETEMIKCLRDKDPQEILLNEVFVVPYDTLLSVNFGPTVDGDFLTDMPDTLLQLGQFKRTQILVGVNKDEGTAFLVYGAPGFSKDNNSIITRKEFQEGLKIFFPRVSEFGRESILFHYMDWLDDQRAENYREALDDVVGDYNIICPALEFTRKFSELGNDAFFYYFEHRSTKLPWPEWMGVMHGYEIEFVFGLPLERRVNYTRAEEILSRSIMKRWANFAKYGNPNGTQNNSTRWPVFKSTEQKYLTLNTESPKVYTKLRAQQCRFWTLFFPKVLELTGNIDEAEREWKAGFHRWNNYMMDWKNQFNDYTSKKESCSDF
TEST DESCRIPTION: biochemical
SETTINGS: ± SD
REPORTED METRIC: IC50 (µM)

> print(dat)
                                   molecule  reported.metric  value.prefix  result
1  C#CCCOc1ccc(C2NC(=S)N(CCC3CCN(Cc4ccccc4)CC3)C(C)=C2C(=O)OCC)cc1 (centres unmarked)             IC50             =    8.54
2  C#CCCOc1ccc(C2NC(=S)N(CC3CCN(Cc4ccccc4)CC3)C(C)=C2C(=O)OCC)cc1 (centres unmarked)             IC50             =    33.8
3  C#CCOc1ccc(C2NC(=O)N(CCC3CCN(Cc4ccccc4)CC3)C(C)=C2C(=O)OCC)cc1 (centres unmarked)             IC50             =    4.78
4  C#CCCOc1ccc(C2NC(=O)N(CC3CCN(Cc4ccccc4)CC3)C(C)=C2C(=O)OCC)cc1 (centres unmarked)             IC50             >      10
5  C#CCOc1ccc(C2NC(=S)N(CCC3CCN(Cc4ccccc4)CC3)C(C)=C2C(=O)OCC)cc1 (centres unmarked)             IC50             =    5.43
6  C#CCOc1ccc(C2NC(=O)N(CC3CCN(Cc4ccccc4)CC3)C(C)=C2C(=O)OCC)cc1 (centres unmarked)             IC50             =    31.2
7  C#CCOc1ccc(C2NC(=S)N(CC3CCN(Cc4ccccc4)CC3)C(C)=C2C(=O)OCC)cc1 (centres unmarked)             IC50             =    7.64
8  C#CCCOc1ccc(C2NC(=O)N(CCC3CCN(Cc4ccccc4)CC3)C(C)=C2C(=O)OCC)cc1 (centres unmarked)             IC50             =    6.63
